Biological target: BuChE (Equus caballus)
Construct: The enzymes AChE and BuChE were obtained from electric eel and equine serum, respectively; from tissue; host or cells: equine serum
Sequence (P81908 whole entry): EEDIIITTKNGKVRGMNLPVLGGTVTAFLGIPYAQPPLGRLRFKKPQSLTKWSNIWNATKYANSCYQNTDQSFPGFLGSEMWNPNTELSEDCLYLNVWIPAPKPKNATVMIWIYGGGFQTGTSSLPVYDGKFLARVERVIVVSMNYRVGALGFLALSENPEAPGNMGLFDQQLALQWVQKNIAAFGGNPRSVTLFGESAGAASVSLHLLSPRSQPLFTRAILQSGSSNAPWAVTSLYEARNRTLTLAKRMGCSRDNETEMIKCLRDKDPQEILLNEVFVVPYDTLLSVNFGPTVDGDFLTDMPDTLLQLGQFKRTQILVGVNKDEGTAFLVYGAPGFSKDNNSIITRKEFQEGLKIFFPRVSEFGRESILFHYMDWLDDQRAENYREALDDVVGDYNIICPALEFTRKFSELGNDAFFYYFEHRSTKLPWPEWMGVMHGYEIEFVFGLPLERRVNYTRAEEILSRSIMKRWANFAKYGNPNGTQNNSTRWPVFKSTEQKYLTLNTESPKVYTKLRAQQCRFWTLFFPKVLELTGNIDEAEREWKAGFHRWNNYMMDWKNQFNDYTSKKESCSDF
Test: biochemical
Settings: BuChE from equine serum, Ellman's method, n = 3; read-out: BuChEI (IC50 (nM))
Measurement type: IC50

The cases that follow already have their IC50 on record.
• O=C(/C=C/c1ccc(Cl)cc1)CC(=O)/C=C/c1ccc(Cl)cc1 = 378 nM
• Cc1ccc(/C=C/C(=O)CC(=O)/C=C/c2ccc(C)cc2)cc1 = 2160 nM

Query block: Check the records and state IC50 for `CN(C)c1ccc(/C=C/C(=O)CC(=O)/C=C/c2ccc(N(C)C)cc2)cc1`
Result block: 6640 nM

Query block: Hello, please tell me recorded IC50 for this one: `O=C(/C=C/c1ccccc1)CC(=O)/C=C/c1ccccc1`
Result block: 5350 nM
